Assay: Particle size of cilostazol (lactose/SLS ratio) after redispersion of slurry or dried powder in distilled water, laser scattering particle size analyzer
Assay type: physicochemical
Conditions: drying powder redispersed; Lactose 225 g, SLS 225 g
PROPERTY NAME: Particle size range D90 (nm)
Report the figure in nm without appending any unit label.

**Q:** Could you share which Particle size range D90 value was measured for O=C1CCc2cc(OCCCCc3nnnn3C3CCCCC3)ccc2N1 [Cilostazol, cilostazol] ?
**A:** 490

Ref: patent US20100003332A1
